src = PubChem BioAssay AID328

- Test system: BDF1 mice, P388 leukemia ip, median survival T/C
- assay_notes: NCI In Vivo Anticancer Drug Screen. Data for tumor model P388 Leukemia (intraperitoneal) in B6D2F1 (BDF1) mice
- cond: endpoint: median survival time; dose: 2.0 mg/kg/injection; schedule: Q01DX009 (ip); vehicle: saline
Toxic doses and inconclusive results are not listed. Rule for the calls: active = survival T/C of 150% or more; inactive = T/C below 125% in these data.
Give your call using only these classes: active, inactive

Study these solved cases before continuing.
> print(dat)
                                   molecule     class
1   c1ccc(-c2csc3c4ccccc4c4ccccc4[n+]23)cc1  inactive
2  CCCC1CC[N-]CC1.CCCC1CC[N-]CC1.[Cl][Cu][Cl]  inactive
3                     CSc1nc(Cl)cc(N2CC2)n1  inactive

What was the test verdict on OC(C1CO1)C(O)C1CO1 (stereo not given) ?
active

What was the test verdict on O=CC(NC(=O)N(CCCl)N=O)C(O)C(O)C(O)CO (stereo not given) ?
active

* * *

- Tested on: BDF1 mice, P388 leukemia ip, median survival T/C
- assay_notes: NCI In Vivo Anticancer Drug Screen. Data for tumor model P388 Leukemia (intraperitoneal) in B6D2F1 (BDF1) mice
- cond: endpoint: median survival time; dose: 200.0 mg/kg/injection; schedule: Q04DX003 (ip); vehicle: saline; higher = longer survival
Toxic doses and inconclusive results are not listed.
Reported T/C by item:

Worked cases, T/C given:
> print(dat)
                              compound  measured.property   endpoint.result
1  Cn1c(/N=C(/N)N=C(N)N)cc(=O)n(C)c1=O                T/C   95 % of control
2                C[C@@]1(O)CCCC[C@H]1O                T/C  100 % of control

Provide the documented T/C with BDF1 mice, P388 leukemia ip, median survival T/C as the system for C(#CCN1CCOCC1)CCCN1CCOCC1
100 % of control

Provide the documented T/C with BDF1 mice, P388 leukemia ip, median survival T/C as the system for C/C(CCC(=O)O)=N/O
108 % of control

Provide the documented T/C with BDF1 mice, P388 leukemia ip, median survival T/C as the system for CC(=O)NNC(=O)c1ccncc1
118 % of control

Provide the documented T/C with BDF1 mice, P388 leukemia ip, median survival T/C as the system for CNC(C)(C)CO
95 % of control

Provide the documented T/C with BDF1 mice, P388 leukemia ip, median survival T/C as the system for CSc1nc(Cl)cc2c1ncn2C1OC(CO)C(O)C1O (stereo not drawn)
110 % of control

Provide the documented T/C with BDF1 mice, P388 leukemia ip, median survival T/C as the system for CC(CO)S(=O)(=O)C(C)(C)C (stereo not drawn)
95 % of control

* * *

Reported T/C by item:
- System: BDF1 mice, P388 leukemia ip, median survival T/C
- assay_notes: NCI In Vivo Anticancer Drug Screen. Data for tumor model P388 Leukemia (intraperitoneal) in B6D2F1 (BDF1) mice
- cond: endpoint: median survival time; dose: 50.0 mg/kg/injection; schedule: Q01DX009 (ip); vehicle: saline with Tween-80; higher = longer survival
Toxic doses and inconclusive results are not listed.

Give the measured T/C of O=C1OC(Cc2ccccc2)(c2ccccc2)c2ccccc21 (configuration not stated) .
90 % of control

Give the measured T/C of S=c1[nH]c2nc(Cl)c(Cl)nc2[nH]1 .
102 % of control

Give the measured T/C of O=C1N=C(C(F)(F)F)N=C1c1[nH]c(C(F)(F)F)nc1O .
111 % of control

Give the measured T/C of CC(=O)Nc1ccc2c(c1)OCO2 .
104 % of control

Give the measured T/C of Cc1ccc(Cc2c(C=O)nc(N)[nH]c2=O)c2ccccc12 .
102 % of control
